All values here come from paper PMC7753147.

tested on: gephE; assay: µSPOT peptide microarray binding assay with recombinant gephE; settings: µSPOT peptide microarray, GlyRβ full positional scan, recombinant gephE; intensity normalised to wild-type sequence DLRSNDFSIVGSLPR (=1)
measuredParameter: gephE Binding Intensity [norm.] (norm.)

Sample answers from the record:
>  <orderedResidues>
DLRGNDFSIVGSLPR [GlyRβ_Full_Positional_Scan_062]

>  <unitInfo>
norm.

>  <gephE Binding Intensity [norm.]>
0.99

$$$$
>  <orderedResidues>
DLRSADFSIVGSLPR [GlyRβ_Full_Positional_Scan_081]

>  <unitInfo>
norm.

>  <gephE Binding Intensity [norm.]>
0.93

$$$$
>  <orderedResidues>
DLSSNDFSIVGSLPR [GlyRβ_Full_Positional_Scan_055]

>  <unitInfo>
norm.

>  <gephE Binding Intensity [norm.]>
0.87

$$$$
>  <orderedResidues>
DLRNNDFSIVGSLPR [GlyRβ_Full_Positional_Scan_079]

>  <unitInfo>
norm.

>  <gephE Binding Intensity [norm.]>
0.92

$$$$
>  <orderedResidues>
DYRSNDFSIVGSLPR [GlyRβ_Full_Positional_Scan_029]

>  <unitInfo>
norm.

>  <gephE Binding Intensity [norm.]>
0.95

$$$$
>  <orderedResidues>
HLRSNDFSIVGSLPR [GlyRβ_Full_Positional_Scan_013]

>  <unitInfo>
norm.

>  <gephE Binding Intensity [norm.]>
1.1

$$$$
>  <orderedResidues>
DLRSFDFSIVGSLPR [GlyRβ_Full_Positional_Scan_087]

>  <unitInfo>
norm.

>  <gephE Binding Intensity [norm.]>
0.9

$$$$
>  <orderedResidues>
DLRENDFSIVGSLPR [GlyRβ_Full_Positional_Scan_071]

>  <unitInfo>
norm.

>  <gephE Binding Intensity [norm.]>
0.93

$$$$
>  <orderedResidues>
LLRSNDFSIVGSLPR [GlyRβ_Full_Positional_Scan_004]

>  <unitInfo>
norm.

>  <gephE Binding Intensity [norm.]>
1.18

$$$$
>  <orderedResidues>
DLRSNDFSIMGSLPR [GlyRβ_Full_Positional_Scan_198, GlyR β 414-428 variant V423M]

>  <unitInfo>
norm.

>  <gephE Binding Intensity [norm.]>
0.44

$$$$

(A) DLRSNDFSIEGSLPR [GlyRβ_Full_Positional_Scan_191, GlyR β 414-428 variant V423E]
(B) DLRSNSFSIVGSLPR [GlyRβ_Full_Positional_Scan_115]
Of the two listed items, which has the higher gephE Binding Intensity [norm.]? First: A Second: B Answer with the label corresponding to your selection.
B
(B: 0.89 norm., A: 0.58 norm.)

(P) DERSNDFSIVGSLPR [GlyRβ_Full_Positional_Scan_031]
(Q) DLRSNDFSIWGSLPR [GlyRβ_Full_Positional_Scan_188, GlyR β 414-428 variant V423W]
Of the two listed items, which has the higher gephE Binding Intensity [norm.]? First: P Second: Q Answer with the label corresponding to your selection.
P

(a) DLRSNDFSIYGSLPR [GlyRβ_Full_Positional_Scan_189, GlyR β 414-428 variant V423Y]
(b) DLRSNDVSIVGSLPR [GlyRβ_Full_Positional_Scan_126, GlyR β 414-428 variant F420V]
(c) TLRSNDFSIVGSLPR [GlyRβ_Full_Positional_Scan_016]
I would appreciate it if you could sort these 3 sequences by gephE Binding Intensity [norm.], starting from the smallest number. Sort the labels as requested; that list is your answer.
b, a, c
